# Test system: Staphylococcus aureus
# testDetails: Inhibitory effect against methicillin resistant Staphylococcus aureus (A 27218), expressed as minimum inhibitory concentration
# Format: functional
# label = true (1) if MIC < 0.5 µg/mL else false (0)

// query In plain terms, does CN[C@H](CC(C)C)C(=O)N[C@H]1C(=O)N[C@@H](CC(N)=O)C(=O)N[C@H]2C(=O)N[C@H]3C(=O)N[C@H](C(=O)N[C@H](C(=O)O)c4cc(O)cc(O)c4-c4cc3ccc4O)[C@H](O)c3ccc(c(Cl)c3)Oc3cc2cc(c3O[C@@H]2O[C@H](CO)[C@@H](O)[C@H](O)[C@H]2O[C@H]2C[C@](C)(N)[C@H](O)[C@H](C)O2)Oc2ccc(cc2Cl)[C@H]1O [VANCOMYCIN] come in under 0.5 µg/mL for MIC?
// result true (1)

// query In plain terms, does C[n+]1cccc(C(=O)OCC2=C(C(=O)[O-])N3C(=O)[C@@H](NC(=O)CSc4cc(Cl)ccc4Cl)C3SC2)c1 (stereo not given in full) come in under 0.5 µg/mL for MIC?
// result false (0)

// query In plain terms, does COc1ccc(C(=O)OCC2=C(C(=O)O)N3C(=O)[C@@H](NC(=O)CSc4cc(Cl)ccc4Cl)C3SC2)cc1 (stereo not given in full) come in under 0.5 µg/mL for MIC?
// result true (1)

// query In plain terms, does Cc1ccc(C(=O)OCC2=C(C(=O)O)N3C(=O)[C@@H](NC(=O)CSc4cc(Cl)ccc4Cl)C3SC2)cc1 (stereo not given in full) come in under 0.5 µg/mL for MIC?
// result true (1)
